- experimental-protocol: Pharmacokinetics of Octreotide in albumin crystal sugar truffle shell vs IV, plasma Octreotide by ELISA
- Type: in vivo, Wistar Rats
- condition-set: male, Wistar, rat, in vivo, iv, 0.1 mg, IV, read-out: AUC 0-inf_pred
measured-metric: AUC(0-inf) (µg·h/mL)

>>> observed_measurement("C[C@@H](O)[C@@H]1NC(=O)[C@H](CCCCN)NC(=O)[C@@H](Cc2c[nH]c3ccccc23)NC(=O)[C@H](Cc2ccccc2)NC(=O)[C@@H](NC(=O)[C@H](N)Cc2ccccc2)CSSC[C@@H](C(=O)N[C@H](CO)[C@@H](C)O)NC1=O (relative stereo) [Octreotide]")
104

----------
- experimental-protocol: Pharmacokinetics of Octreotide in albumin crystal sugar truffle shell vs IV, plasma Octreotide by ELISA
- Assay type: in vivo, Wistar Rats
- condition-set: male, Wistar, rat, in vivo, iv, 0.1 mg, IV, read-out: MRT 0-inf_obs
measured-metric: MRT inf (h)

>>> observed_measurement("C[C@@H](O)[C@@H]1NC(=O)[C@H](CCCCN)NC(=O)[C@@H](Cc2c[nH]c3ccccc23)NC(=O)[C@H](Cc2ccccc2)NC(=O)[C@@H](NC(=O)[C@H](N)Cc2ccccc2)CSSC[C@@H](C(=O)N[C@H](CO)[C@@H](C)O)NC1=O (relative stereo) [Octreotide]")
18.6

----------
- experimental-protocol: Pharmacokinetics of Octreotide in albumin crystal sugar truffle shell vs IV, plasma Octreotide by ELISA
- Assay type: in vivo, Wistar Rats
- condition-set: male, Wistar, rat, in vivo, iv, 0.1 mg; read-out: t½ (converted)
measured-metric: half-life (h)

>>> observed_measurement("C[C@@H](O)[C@@H]1NC(=O)[C@H](CCCCN)NC(=O)[C@@H](Cc2c[nH]c3ccccc23)NC(=O)[C@H](Cc2ccccc2)NC(=O)[C@@H](NC(=O)[C@H](N)Cc2ccccc2)CSSC[C@@H](C(=O)N[C@H](CO)[C@@H](C)O)NC1=O (relative stereo) [Octreotide]")
12.8

----------
- experimental-protocol: Pharmacokinetics of Octreotide in albumin crystal sugar truffle shell vs IV, plasma Octreotide by ELISA
- Type: in vivo, Wistar Rats
- condition-set: male, Wistar, rat, in vivo, iv, 0.1 mg
measured-metric: Cmax (ng/mL)

>>> observed_measurement("C[C@@H](O)[C@@H]1NC(=O)[C@H](CCCCN)NC(=O)[C@@H](Cc2c[nH]c3ccccc23)NC(=O)[C@H](Cc2ccccc2)NC(=O)[C@@H](NC(=O)[C@H](N)Cc2ccccc2)CSSC[C@@H](C(=O)N[C@H](CO)[C@@H](C)O)NC1=O (relative stereo) [Octreotide]")
5390

----------
- experimental-protocol: Pharmacokinetics of Octreotide in albumin crystal sugar truffle shell vs IV, plasma Octreotide by ELISA
- Assay type: in vivo, Wistar Rats
- condition-set: male, Wistar, rat, in vivo; 0.25 h; IV, 0.1 mg
measured-metric: level at 0.25 h (µg/mL)

>>> observed_measurement("C[C@@H](O)[C@@H]1NC(=O)[C@H](CCCCN)NC(=O)[C@@H](Cc2c[nH]c3ccccc23)NC(=O)[C@H](Cc2ccccc2)NC(=O)[C@@H](NC(=O)[C@H](N)Cc2ccccc2)CSSC[C@@H](C(=O)N[C@H](CO)[C@@H](C)O)NC1=O (relative stereo) [Octreotide]")
4.39

----------
- experimental-protocol: Pharmacokinetics of Octreotide in albumin crystal sugar truffle shell vs IV, plasma Octreotide by ELISA
- Assay type: in vivo, Wistar Rats
- condition-set: male, Wistar, rat, in vivo; 4 h; IV, 0.1 mg
measured-metric: level at 4 h (ng/mL)

>>> observed_measurement("C[C@@H](O)[C@@H]1NC(=O)[C@H](CCCCN)NC(=O)[C@@H](Cc2c[nH]c3ccccc23)NC(=O)[C@H](Cc2ccccc2)NC(=O)[C@@H](NC(=O)[C@H](N)Cc2ccccc2)CSSC[C@@H](C(=O)N[C@H](CO)[C@@H](C)O)NC1=O (relative stereo) [Octreotide]")
5150

----------
- experimental-protocol: Pharmacokinetics of Octreotide in albumin crystal sugar truffle shell vs IV, plasma Octreotide by ELISA
- Type: in vivo, Wistar Rats
- condition-set: male, Wistar, rat, in vivo, iv, 0.1 mg, IV, read-out: AUC t-inf_pred
measured-metric: AUC(0-t) (ng·h/mL)

>>> observed_measurement("C[C@@H](O)[C@@H]1NC(=O)[C@H](CCCCN)NC(=O)[C@@H](Cc2c[nH]c3ccccc23)NC(=O)[C@H](Cc2ccccc2)NC(=O)[C@@H](NC(=O)[C@H](N)Cc2ccccc2)CSSC[C@@H](C(=O)N[C@H](CO)[C@@H](C)O)NC1=O (relative stereo) [Octreotide]")
29400

----------
- experimental-protocol: Pharmacokinetics of Octreotide in albumin crystal sugar truffle shell vs IV, plasma Octreotide by ELISA
- Type: in vivo, Wistar Rats
- condition-set: male, Wistar, rat, in vivo; 2 h; IV, 0.1 mg
measured-metric: level at 2 h (ng/mL)

>>> observed_measurement("C[C@@H](O)[C@@H]1NC(=O)[C@H](CCCCN)NC(=O)[C@@H](Cc2c[nH]c3ccccc23)NC(=O)[C@H](Cc2ccccc2)NC(=O)[C@@H](NC(=O)[C@H](N)Cc2ccccc2)CSSC[C@@H](C(=O)N[C@H](CO)[C@@H](C)O)NC1=O (relative stereo) [Octreotide]")
5390

----------
- experimental-protocol: Pharmacokinetics of Octreotide in albumin crystal sugar truffle shell vs IV, plasma Octreotide by ELISA
- Type: in vivo, Wistar Rats
- condition-set: male, Wistar, rat, in vivo, iv, 0.1 mg
measured-metric: C0 (ng/mL)

>>> observed_measurement("C[C@@H](O)[C@@H]1NC(=O)[C@H](CCCCN)NC(=O)[C@@H](Cc2c[nH]c3ccccc23)NC(=O)[C@H](Cc2ccccc2)NC(=O)[C@@H](NC(=O)[C@H](N)Cc2ccccc2)CSSC[C@@H](C(=O)N[C@H](CO)[C@@H](C)O)NC1=O (relative stereo) [Octreotide]")
3830

----------
- experimental-protocol: Pharmacokinetics of Octreotide in albumin crystal sugar truffle shell vs IV, plasma Octreotide by ELISA
- Type: in vivo, Wistar Rats
- condition-set: male, Wistar, rat, in vivo; 8 h; IV, 0.1 mg
measured-metric: level at 8 h (ng/mL)

>>> observed_measurement("C[C@@H](O)[C@@H]1NC(=O)[C@H](CCCCN)NC(=O)[C@@H](Cc2c[nH]c3ccccc23)NC(=O)[C@H](Cc2ccccc2)NC(=O)[C@@H](NC(=O)[C@H](N)Cc2ccccc2)CSSC[C@@H](C(=O)N[C@H](CO)[C@@H](C)O)NC1=O (relative stereo) [Octreotide]")
3160

----------
- experimental-protocol: Pharmacokinetics of Octreotide in albumin crystal sugar truffle shell vs IV, plasma Octreotide by ELISA
- Type: in vivo, Wistar Rats
- condition-set: male, Wistar, rat, in vivo, iv, 0.1 mg, IV, read-out: AUC t-inf_obs
measured-metric: AUC(0-t) (µg·h/mL)

>>> observed_measurement("C[C@@H](O)[C@@H]1NC(=O)[C@H](CCCCN)NC(=O)[C@@H](Cc2c[nH]c3ccccc23)NC(=O)[C@H](Cc2ccccc2)NC(=O)[C@@H](NC(=O)[C@H](N)Cc2ccccc2)CSSC[C@@H](C(=O)N[C@H](CO)[C@@H](C)O)NC1=O (relative stereo) [Octreotide]")
30.5

----------
- experimental-protocol: Pharmacokinetics of Octreotide in albumin crystal sugar truffle shell vs IV, plasma Octreotide by ELISA
- Assay type: in vivo, Wistar Rats
- condition-set: male, Wistar, rat, in vivo, iv, 0.1 mg, IV, read-out: AUC 0-t
measured-metric: AUC(0-t) (ng·h/mL)

>>> observed_measurement("C[C@@H](O)[C@@H]1NC(=O)[C@H](CCCCN)NC(=O)[C@@H](Cc2c[nH]c3ccccc23)NC(=O)[C@H](Cc2ccccc2)NC(=O)[C@@H](NC(=O)[C@H](N)Cc2ccccc2)CSSC[C@@H](C(=O)N[C@H](CO)[C@@H](C)O)NC1=O (relative stereo) [Octreotide]")
74200

----------
- experimental-protocol: Pharmacokinetics of Octreotide in albumin crystal sugar truffle shell vs IV, plasma Octreotide by ELISA
- Assay type: in vivo, Wistar Rats
- condition-set: male, Wistar, rat, in vivo, iv, 0.1 mg, IV, read-out: MRT 0-inf_pred
measured-metric: MRT inf (h)

>>> observed_measurement("C[C@@H](O)[C@@H]1NC(=O)[C@H](CCCCN)NC(=O)[C@@H](Cc2c[nH]c3ccccc23)NC(=O)[C@H](Cc2ccccc2)NC(=O)[C@@H](NC(=O)[C@H](N)Cc2ccccc2)CSSC[C@@H](C(=O)N[C@H](CO)[C@@H](C)O)NC1=O (relative stereo) [Octreotide]")
18.3

----------
- experimental-protocol: Pharmacokinetics of Octreotide in albumin crystal sugar truffle shell vs IV, plasma Octreotide by ELISA
- Assay type: in vivo, Wistar Rats
- condition-set: male, Wistar, rat, in vivo, iv, 0.1 mg; read-out: MRT 0-t
measured-metric: MRT last

>>> observed_measurement("C[C@@H](O)[C@@H]1NC(=O)[C@H](CCCCN)NC(=O)[C@@H](Cc2c[nH]c3ccccc23)NC(=O)[C@H](Cc2ccccc2)NC(=O)[C@@H](NC(=O)[C@H](N)Cc2ccccc2)CSSC[C@@H](C(=O)N[C@H](CO)[C@@H](C)O)NC1=O (relative stereo) [Octreotide]")
"8.78 h"

# credit: patent US12533321B2
